Data origin, for the record: PubChem BioAssay (NCATS)

assay: Quantitative High-Throughput drug screen in 47 multiple myeloma cell lines against the NCATS MIPE library collection: OCIMY1_PLB cell viability assay (AID 1918979); conditions: OCI-MY1 myeloma viability, CellTiter-Glo ATP, 48 h; series mostly up to 45.8 µM; note: nearly all actives have a fitted effect of over 35% in size; note: potency is the fitted concentration of half-maximal effect;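 for viability: 100% = DMSO-only wells and 0% = cell-free media-only wells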
Inconclusive results are not listed. The source made the active and inactive calls. Calls come from the whole dose curve; as a rule, active = well fitted cell-killing curve with a large enough effect; inconclusive = small, poorly fitted or top-dose-only effect, or effect the other way; inactive = no such curve, though single readings can be large or run the other way.
experimental-endpoint: Potency

These recorded examples may help you get a feel for the data.
[
  {
    "compound": "Cc1cc(NC(=O)Nc2ccc(N(C)C)cc2)c2cc(F)cc(F)c2n1",
    "Potency": "inactive"
  },
  {
    "compound": "Cc1cc(OCCCS(C)(=O)=O)cc(C)c1-c1cccc(COc2ccc3c(c2)OC[C@H]3CC(=O)O)c1",
    "Potency": "inactive"
  },
  {
    "compound": "CC(C)(CO)[C@@H](O)C(=O)NCCC(=O)O",
    "Potency": "inactive"
  },
  {
    "compound": "OC[C@H]1O[C@@H](OCCc2ccc(O)cc2)[C@H](O)[C@@H](O)[C@H]1O",
    "Potency": "inactive"
  },
  {
    "compound": "NC[C@H]1O[C@H](O[C@@H]2[C@@H](O)[C@@H](O[C@H]3O[C@H](CO)[C@@H](O)[C@H](N)[C@@H]3O)[C@H](N)C[C@@H]2N)[C@H](O)[C@@H](O)[C@H]1O",
    "Potency": "inactive"
  }
]

*Q* Tell me measured Potency for COc1cc([C@@H]2c3cc4c(cc3[C@@H](O[C@@H]3O[C@@H]5CO[C@@H](C)O[C@@H]5[C@H](O)[C@@H]3O)[C@H]3COC(=O)[C@H]23)OCO4)cc(OC)c1O please.
*A* inactive

*Q* Tell me measured Potency for O=C(NC[C@H](O)CO)c1ccncc1Nc1ccc(I)cc1F please.
*A* 0.0935 µM (active)

*Q* Tell me measured Potency for Cn1cnc(-c2cc3nccc(Oc4ccc(NC(=S)NC(=O)Cc5ccccc5)cc4F)c3s2)c1 please.
*A* inactive

*Q* Tell me measured Potency for C#C[C@]1(O)CC[C@H]2[C@H]3CCc4cc(OC)ccc4[C@H]3CC[C@@]21C please.
*A* inactive

*Q* Tell me measured Potency for C=C[C@@H]1CN2CCC1C[C@@H]2C(O)c1ccnc2ccc(OC)cc12 (some centres undefined) please.
*A* inactive

====

system: CP192; test: qHTS profiling for inhibitors of Plasmodium falciparum proliferation (AID 504749); note: nearly all actives have a fitted effect of over 60% in size; settings: P. falciparum in erythrocytes, SYBR Green DNA, 72 h; series mostly up to 28.7 µM
Results filed as inconclusive are left out. Activity calls are given as the source filed them. The call rests on the fitted dose curve; in most records, active means well fitted inhibition curve with a large enough effect; inconclusive means small, poorly fitted or top-dose-only effect; inactive means flat fitted curve, though single readings scatter.
The reply should name one outcome from 1 = active, -1 = inactive

Some entries whose results are on file:
[
  {
    "compound": "O=C(O)c1nc(=O)[nH]c(=O)[nH]1",
    "class": -1
  },
  {
    "compound": "C=C1c2cccc(O)c2C(O)=C2C(=O)[C@@]3(O)C(O)=C(C(N)=O)C(=O)[C@@H](N(C)C)[C@@H]3[C@@H](O)[C@H]12",
    "class": -1
  },
  {
    "compound": "COc1ccnc(CS(=O)c2nc3ccc(OC(F)F)cc3[nH]2)c1OC (centres undefined)",
    "class": -1
  },
  {
    "compound": "CN1CC(=O)N2C(Cc3c([nH]c4ccccc34)[C@H]2c2ccc3c(c2)OCO3)C1=O (some centres undefined)",
    "class": -1
  },
  {
    "compound": "Cc1cc2nc3c(=O)[nH]c(=O)nc-3n(CC(O)C(O)C(O)CO)c2cc1C (centres undefined)",
    "class": -1
  },
  {
    "compound": "N#CC(c1ccc(Cl)cc1)c1c(Cl)cc(-n2ncc(=O)[nH]c2=O)cc1Cl (centres undefined)",
    "class": -1
  },
  {
    "compound": "COc1c(C)c2c(c(O)c1CC=C(C)CCC(=O)OCCN1CCOCC1)C(=O)OC2",
    "class": 1
  },
  {
    "compound": "NS(=O)(=O)c1cc(Cl)c(Cl)c(S(N)(=O)=O)c1",
    "class": -1
  }
]

*Q* For this compound, state the assay outcome: N#Cc1c(N(CC(=O)O)CC(=O)O)sc(C(=O)O)c1CC(=O)O
*A* -1

====

assay: qHTS assay to identify inhibitors of the type 1 interferon - major histocompatibility complex class I in skeletal muscle: Counter screen cell viability and HiBit confirmation (AID 1347412); details: iHSKM muscle cells + IFN-b, HiBiT or CellTiter-Glo, 24 h; Viability; at 45.9 µM (top of the series); note: % is set by controls: 0 for no effect and ±100 for the full control effect; nearly all actives have a fitted effect of over 60% in size
Inconclusive results are not listed.
# reported activity change, negative = inhibition; entries follow
Just the number in %, nothing appended.

[
  {
    "compound": "Fc1ccc(CNc2ncnc3ccc(F)cc23)cc1",
    "value-unit": "%",
    "activity change, negative = inhibition": 2.98
  },
  {
    "compound": "CNC(=O)c1cc(Oc2ccc(NC(=O)Nc3ccc(Cl)c(C(F)(F)F)c3)c(F)c2)ccn1",
    "value-unit": "%",
    "activity change, negative = inhibition": 2.73
  },
  {
    "compound": "CC(C)(C)c1nc(-c2cccc(NS(=O)(=O)c3c(F)cccc3F)c2F)c(-c2ccnc(N)n2)s1",
    "value-unit": "%",
    "activity change, negative = inhibition": 12.8
  },
  {
    "compound": "COc1ccc(-c2cc3nccn3c(Nc3ncccc3C(N)=O)n2)cc1OC",
    "value-unit": "%",
    "activity change, negative = inhibition": -22.4
  },
  {
    "compound": "CCc1cc(-c2n[nH]c(C)c2-c2ccc3c(c2)OCCO3)c(O)cc1O",
    "value-unit": "%",
    "activity change, negative = inhibition": -3.79
  },
  {
    "compound": "O=C(Nc1cccc(Cl)c1)Nc1ncc(CCNc2ncnc3ccsc23)s1",
    "value-unit": "%",
    "activity change, negative = inhibition": 8.48
  },
  {
    "compound": "CNC(=O)c1ccc2c(C(=Nc3cccc(CN(C)C)c3)c3ccccc3)c(O)[nH]c2c1",
    "value-unit": "%",
    "activity change, negative = inhibition": -1.9
  },
  {
    "compound": "NC1(C(=O)N[C@@H](CCO)c2ccc(Cl)cc2)CCN(c2ncnc3[nH]ccc23)CC1",
    "value-unit": "%",
    "activity change, negative = inhibition": -19.1
  }
]

*Q* Tell me measured activity change, negative = inhibition for COc1ccc2nc3cc(Cl)ccc3c(Nc3cc(CN4CCCC4)c(O)c(CN4CCCC4)c3)c2n1 please.
*A* -8.41

*Q* Tell me measured activity change, negative = inhibition for OC(c1cc(C(F)(F)F)nc2c(C(F)(F)F)cccc12)C1CCCCN1 (stereo unspecified) please.
*A* -12.8

*Q* Tell me measured activity change, negative = inhibition for CC[C@H](CC#N)OC(=O)N[C@@H](C)c1cccc(NC(=O)Nc2ccc(-c3cnco3)c(OC)c2)c1 please.
*A* -7.06

====

assay: Quantitative High-Throughput drug screen in 47 multiple myeloma cell lines against the NCATS MIPE library collection: KMM1_JCRB cell viability assay (AID 1918960); settings: KMM1 myeloma viability, CellTiter-Glo ATP luminescence, 48 h; series mostly up to 45.8 µM;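 note: 100% = DMSO-treated cells and 0% = medium-only wells; nearly all actives have a fitted effect of over 30% in size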
Results filed as inconclusive are left out. Calls of active or inactive are those of the source. Calls come from the whole dose curve; as a rule, active = well fitted cell-killing curve with a large enough effect; inconclusive = small, poorly fitted or top-dose-only effect, or effect the other way; inactive = no such curve, though single readings can be large or run the other way.
The reply should name one outcome from 1 = active, -1 = inactive

*Q* For this compound, state the assay outcome: CC[C@H](C=C[C@@H](C)[C@H]1CC[C@H]2[C@@H]3CC=C4C[C@@H](O)CC[C@]4(C)[C@@H]3CC[C@]12C)C(C)C
*A* -1

*Q* For this compound, state the assay outcome: C=C[C@@H]1CN2CCC1C[C@@H]2C(O)c1ccnc2ccc(OC)cc12 (some centres undefined)
*A* -1

====

test: Quantitative High-Throughput drug screen in 47 multiple myeloma cell lines against the NCATS MIPE library collection: Karpas25_ECACC cell viability assay (AID 1918968; note: nearly all actives have a fitted effect of over 35% in size); conditions: Karpas25 myeloma viability, CellTiter-Glo ATP, 48 h; series mostly up to 45.8 µM
Records with an inconclusive call do not appear. Active and inactive are the calls of the source. Calls follow the shape of the dose curve; as a rule, active = well fitted cell-killing curve with a large enough effect; inconclusive = small, poorly fitted or top-dose-only effect, or effect the other way; inactive = no such curve, though single readings can be large or run the other way.
The reply should name one outcome from active, inactive

Some entries whose results are on file:
[
  {
    "compound": "O=[N+]([O-])c1ccc(Nc2ccccc2-c2ccccc2)c2nonc12",
    "class": "active"
  },
  {
    "compound": "CC1(C)OC2CC3C4CC(F)C5=CC(=O)C=CC5(C)C4C(O)CC3(C)[C@]2(C(=O)CO)O1 (stereo partly drawn)",
    "class": "active"
  },
  {
    "compound": "Cc1cn([C@@H]2C[C@@H](O)[C@H](CO)O2)c(=O)[nH]c1=O",
    "class": "inactive"
  }
]

*Q* For this compound, state the assay outcome: NC[C@H]1O[C@H](O[C@@H]2[C@@H](O)[C@@H](O[C@H]3O[C@H](CO)[C@@H](O)[C@H](N)[C@@H]3O)[C@H](N)C[C@@H]2N)[C@H](O)[C@@H](O)[C@H]1O
*A* inactive

*Q* For this compound, state the assay outcome: Nc1[nH]nc2nnc(-c3c(-c4ccccc4)nn4ccccc34)cc12
*A* active

*Q* For this compound, state the assay outcome: N#CC(=C1Nc2ccccc2S1)c1ccnc(OCc2ccc(CN3CCOCC3)cc2)n1
*A* active

*Q* For this compound, state the assay outcome: CC(C)C[C@H](NC(=O)c1cc2ccccc2s1)C(=O)N1CCN(C(=O)[C@H](CO)NS(=O)(=O)c2ccc(Cl)cc2Cl)CC1
*A* active

*Q* For this compound, state the assay outcome: CCCCC[C@H](O)C=C[C@H]1[C@H](O)CC(=O)[C@H]1CC=CCCCC(=O)O
*A* active
